target: PSMA-expressing C4-2 cells (Homo sapiens, UniProt Q04609); construct: PSMA-expressing C4-2 cells (ATCC, Cat. No. CRL-3314) were cultured in RPMI-1640; host or cells: C4-2 cells; test: FACS binding assay (competition with 50 nM PSM-0183); details: pIC50 category of FACS binding, C4-2 cells; read-out: pIC50 [C4-2] CAT (converted)
Sequence (Q04609 whole entry): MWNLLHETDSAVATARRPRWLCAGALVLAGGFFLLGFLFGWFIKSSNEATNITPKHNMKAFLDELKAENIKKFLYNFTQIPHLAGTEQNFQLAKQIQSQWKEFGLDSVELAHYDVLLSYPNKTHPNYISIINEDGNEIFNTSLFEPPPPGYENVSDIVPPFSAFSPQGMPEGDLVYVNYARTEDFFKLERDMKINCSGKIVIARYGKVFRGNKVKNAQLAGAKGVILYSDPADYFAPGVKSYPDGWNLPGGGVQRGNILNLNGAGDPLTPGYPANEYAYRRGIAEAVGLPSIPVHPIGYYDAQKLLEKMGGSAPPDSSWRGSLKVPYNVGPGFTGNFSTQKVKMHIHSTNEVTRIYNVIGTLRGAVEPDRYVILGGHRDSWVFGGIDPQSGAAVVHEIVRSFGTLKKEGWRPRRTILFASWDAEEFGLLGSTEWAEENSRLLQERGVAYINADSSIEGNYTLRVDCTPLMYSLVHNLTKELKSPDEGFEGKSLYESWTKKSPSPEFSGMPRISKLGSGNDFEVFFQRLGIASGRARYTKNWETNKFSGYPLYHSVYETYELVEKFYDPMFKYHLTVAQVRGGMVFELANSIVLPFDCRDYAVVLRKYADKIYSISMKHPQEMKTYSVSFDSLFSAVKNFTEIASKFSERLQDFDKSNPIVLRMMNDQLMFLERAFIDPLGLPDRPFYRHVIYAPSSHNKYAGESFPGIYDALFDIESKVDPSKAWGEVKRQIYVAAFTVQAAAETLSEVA
Numbered stars: 1 amine (or outer) side, 2 acyl side, 3 side chain; on linkers, the order of the positions; unused ones are H or OH. Bridge positions count the residues as written; N and C are the ends. Square brackets hold non-standard residues; d marks the D form. Peptide text beside a SMILES is read from it. * marks the point of attachment. DOTA = O=C(O)CN1CCN(CC(=O)O)CCN(CC(=O)*)CCN(CC(=O)O)CC1; Phe(3-CF3) = N[C@@H](Cc1cccc(C(F)(F)F)c1)C(=O)O; Phe(4-Cl) = N[C@@H](Cc1ccc(Cl)cc1)C(=O)O; 2Nal = N[C@@H](Cc1ccc2ccccc2c1)C(=O)O; Arg(Me) = CNC(=N)NCCC[C@H](N)C(=O)O; Ethylenediamine = C(CN[*:2])N[*:1]; X1 = O=C(CC1CCN([*:1])CC1)[*:2]; Lys(Me) = CNCCCC[C@H](N)C(=O)O; Tle = CC(C)(C)[C@H](N)C(=O)O; X15 = O=C1NC(=O)C(CC(=O)*)N1; 4Abz = Nc1ccc(C(=O)O)cc1; Aib = CC(C)(N)C(=O)O; CO = O=C([*:1])[*:2]; NHBu = CCCCN*
READOUT: IC50

Need IC50, item C[C@@H](O)[C@H](NC(=O)CC1CCN(C(=O)CN2CCN(CC(=O)O)CCN(CC(=O)O)CCN(CC(=O)O)CC2)CC1)C(=O)NC(C)(C)C(=O)N[C@@H](Cc1ccc(Cl)cc1)C(=O)N[C@H]1CSSC[C@@H](C(=O)N[C@H](C(=O)NCCN)C(C)(C)C)NC(=O)[C@H](CC(N)=O)NC(=O)C(C)(C)NC(=O)[C@H](CCCNC(=N)N)NC(=O)[C@H](CCCCN)NC1=O [PSM-0384] ({DOTA}-[X1]T[Aib][Phe(4-Cl)]CKR[Aib]NC[Tle]-Ethylenediamine; disulfide 5-10)
< 200 nM

Need IC50, item C[C@@H](O)[C@H](NC(=O)[C@@H](NC(=O)[C@@H]1CSSC[C@H](NC(=O)[C@H](Cc2ccccc2)NC(=O)C(C)(C)NC(=O)CC2NC(=O)NC2=O)C(=O)N[C@@H](CCCCN)C(=O)N[C@@H](CCCNC(=N)N)C(=O)NC(C)(C)C(=O)N[C@@H](CC(N)=O)C(=O)N1)C(C)(C)C)C(N)=O (stereo partly drawn) [PSM-0518] (X15-[Aib]FCKR[Aib]NC[Tle]T-NH2; disulfide 3-8)
< 200 nM

Need IC50, item CC(=O)N[C@H](C(=O)NC(C)(C)C(=O)N[C@@H](Cc1ccccc1)C(=O)N[C@H]1CSSC[C@@H](C(=O)N[C@H](C(=O)N[C@H](C(=O)Nc2ccc(C(=O)N[C@H](CCCCNC(=O)CN3CCN(CC(=O)O)CCN(CC(=O)O)CCN(CC(=O)O)CC3)C(N)=O)cc2)[C@@H](C)O)C(C)(C)C)NC(=O)[C@H](CC(N)=O)NC(=O)C(C)(C)NC(=O)[C@H](CCCNC(=N)N)NC(=O)[C@H](CCCCN)NC1=O)[C@@H](C)O [PSM-0471] (Ac-T[Aib]FCKR[Aib]NC[Tle]T[4Abz][dK](DOTA)-NH2; disulfide 4-9)
< 200 nM

Need IC50, item CC(=O)NC(C)(C)C(=O)N[C@@H](Cc1ccc(Cl)cc1)C(=O)N[C@H]1CSSC[C@@H](C(=O)N[C@H](C(N)=O)C(C)(C)C)NC(=O)[C@H](CC(N)=O)NC(=O)C(C)(C)NC(=O)[C@H](CCCNC(=N)N)NC(=O)[C@H](CCCCN)NC1=O [PSM-0424] (Ac-[Aib][Phe(4-Cl)]CKR[Aib]NC[Tle]-NH2; disulfide 3-8)
< 200 nM

Need IC50, item CNCCCC[C@@H]1NC(=O)[C@@H](NC(=O)[C@H](Cc2cccc(C(F)(F)F)c2)NC(=O)C(C)(C)NC(=O)[C@@H](NC(=O)CC2CCN(C(=O)CN3CCN(CC(=O)O)CCN(CC(=O)O)CCN(CC(=O)O)CC3)CC2)[C@@H](C)O)CSSC[C@@H](C(=O)N[C@H](C(N)=O)C(C)(C)C)NC(=O)[C@H](CC(N)=O)NC(=O)C(C)(C)NC(=O)[C@H](CCCNC(=N)NC)NC1=O [PSM-0396] ({DOTA}-[X1]T[Aib][Phe(3-CF3)]C[Lys(Me)][Arg(Me)][Aib]NC[Tle]-NH2; disulfide 5-10)
< 200 nM

Need IC50, item CC(=O)N[C@H](C(=O)NC(C)(C)C(=O)N[C@@H](Cc1ccc2ccccc2c1)C(=O)N[C@H]1CSSC[C@@H](C(=O)N[C@H](C(=O)N[C@H](C(=O)N[C@@H](CC(=O)O)C(N)=O)[C@@H](C)O)C(C)(C)C)NC(=O)[C@H](CC(N)=O)NC(=O)C(C)(C)NC(=O)[C@H](CCCNC(=N)N)NC(=O)[C@H](CCCCN)NC1=O)[C@@H](C)O [PSM-0517] (Ac-T[Aib][2Nal]CKR[Aib]NC[Tle]TD-NH2; disulfide 4-9)
< 200 nM

Need IC50, item CC(=O)N[C@H](C(=O)NC(C)(C)C(=O)N[C@@H](Cc1ccccc1)C(=O)N[C@H]1CSSC[C@@H](C(=O)N[C@H](C(=O)N[C@H](C(=O)N[C@@H](CC(=O)O)C(N)=O)[C@@H](C)O)C(C)(C)C)NC(=O)[C@H](CC(N)=O)NC(=O)[C@H](CCCCNC(=O)CN2CCN(CC(=O)O)CCN(CC(=O)O)CCN(CC(=O)O)CC2)NC(=O)[C@H](CCCNC(=N)N)NC(=O)[C@H](CCCCN)NC1=O)[C@@H](C)O [PSM-0397] (Ac-T[Aib]FCKRK(DOTA)NC[Tle]TD-NH2; disulfide 4-9)
< 200 nM

Need IC50, item CCCCNC(=O)N[C@H](C(=O)NC(C)(C)C(=O)N[C@@H](Cc1ccccc1)C(=O)N[C@H]1CSSC[C@@H](C(=O)N[C@H](C(=O)N[C@H](C(=O)N2CCC(CC(=O)N[C@H](CCCCNC(=O)CN3CCN(CC(=O)O)CCN(CC(=O)O)CCN(CC(=O)O)CC3)C(N)=O)CC2)[C@@H](C)O)C(C)(C)C)NC(=O)[C@H](CC(N)=O)NC(=O)C(C)(C)NC(=O)[C@H](CCCNC(=N)N)NC(=O)[C@H](CCCCN)NC1=O)[C@@H](C)O [PSM-0484] ({NHBu-CO}-T[Aib]FCKR[Aib]NC[Tle]T[X1][dK](DOTA)-NH2; disulfide 4-9)
< 200 nM

Need IC50, item CC(=O)N[C@H](C(=O)NC(C)(C)C(=O)N[C@@H](Cc1ccccc1)C(=O)N[C@H]1CSSC[C@@H](C(=O)N[C@H](C(=O)N[C@H](C(=O)N2CCC(CC(=O)N[C@H](CCCCNC(=O)CN3CCN(CC(=O)O)CCN(CC(=O)O)CCN(CC(=O)O)CC3)C(N)=O)CC2)[C@@H](C)O)C(C)(C)C)NC(=O)[C@H](CC(N)=O)NC(=O)C(C)(C)NC(=O)[C@H](CCCNC(=N)N)NC(=O)[C@H](CCCCN)NC1=O)[C@@H](C)O [PSM-0428] (Ac-T[Aib]FCKR[Aib]NC[Tle]T[X1][dK](DOTA)-NH2; disulfide 4-9)
< 200 nM

src = patent US20260083865A1
